experiment: Solubility of the compound in phosphate buffer at pH 6.5 by nephelometry; type: physicochemical
endpoint name: solubility kinetic (µg/mL)
Answers are plain numbers, in µg/mL.

Hey, can you go through the list below and give me solubility kinetic for every item?
1. NC(=O)c1cccc(-c2ccc3c(c2)sc2c(N)ncnc23)c1
2. Nc1ncnc2c1sc1cc(-c3cccc(NC(=O)N4CCCC4)c3)ccc12
3. Cn1c2cc(-c3ccccc3)ccc2c2ncnc(N)c21
4. CN1CCN(C(=O)Nc2cccc(-c3ccc4c(c3)sc3c(N)ncnc34)c2)CC1
5. CCNC(=O)Nc1ncc(-c2cc(-c3c(C)cc(OC)cc3C)nc(-c3cnccn3)n2)s1

Reply:
3.1
3.1
3.1
12.5
1.6

Data provenance: ChEMBL document CHEMBL3390844
